- Measurement target: Human recombinant MMP-2 (Homo sapiens, UniProt P08253)
- Sequence (P08253 110-660): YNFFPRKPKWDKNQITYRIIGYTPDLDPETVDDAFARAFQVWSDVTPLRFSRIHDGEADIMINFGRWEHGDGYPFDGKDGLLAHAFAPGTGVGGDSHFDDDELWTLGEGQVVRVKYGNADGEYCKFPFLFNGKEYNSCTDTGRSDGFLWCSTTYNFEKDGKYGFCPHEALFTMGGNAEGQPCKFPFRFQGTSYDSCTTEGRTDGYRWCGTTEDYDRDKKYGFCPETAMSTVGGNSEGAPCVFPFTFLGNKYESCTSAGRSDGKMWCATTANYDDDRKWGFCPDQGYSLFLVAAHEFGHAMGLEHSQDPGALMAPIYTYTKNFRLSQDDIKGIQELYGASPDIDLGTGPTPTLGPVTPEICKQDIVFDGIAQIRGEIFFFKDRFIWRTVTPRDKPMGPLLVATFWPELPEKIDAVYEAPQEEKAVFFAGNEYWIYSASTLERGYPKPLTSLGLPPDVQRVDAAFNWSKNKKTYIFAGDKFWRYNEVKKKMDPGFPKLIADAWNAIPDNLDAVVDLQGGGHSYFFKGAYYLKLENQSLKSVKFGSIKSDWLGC
- Method description: In vitro MMP inhibition assay, MMP-2 (fluorogenic peptide substrate cleavage, Ki)
- Test settings: human MMP-2, full length (FL); read-out: hMMP Ki 02/FL
Readout kind: pKi
Bear in mind: pKi is minus log10 of a mol/L concentration; give just that figure.

(Q) I'm curious: which pKi was measured for COc1cccc(CNC(=O)c2nc3ccc(F)c(OCCC4CCN(C(=O)CO)CC4)c3c(=O)[nH]2)c1 tested on Human recombinant MMP-2 (Homo sapiens, UniProt P08253)?
(A) 5.25
